Data origin, for the record: patent US12180192B2

Form field: pEC50 (one value per entry).
# TARGET DESC: human thyroid receptor beta ligand-binding domain (LBD) (Homo sapiens, UniProt P10828)
# Sequence (P10828 217-461 limits assumed): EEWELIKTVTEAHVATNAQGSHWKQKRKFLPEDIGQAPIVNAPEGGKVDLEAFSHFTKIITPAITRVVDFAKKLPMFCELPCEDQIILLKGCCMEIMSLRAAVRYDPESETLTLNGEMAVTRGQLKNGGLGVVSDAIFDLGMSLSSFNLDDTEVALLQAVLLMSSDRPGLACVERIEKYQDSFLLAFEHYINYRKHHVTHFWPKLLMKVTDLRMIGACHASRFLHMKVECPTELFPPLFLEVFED
# METHOD DESCRIPTION: TR-FRET thyroid receptor beta coactivator assay (THR biochemical assay, Assay 1)
# ASSAY CONDITIONS: THR-beta, TR-FRET coactivator assay; read-out: Activity category Assay 1 (EC50, THR-beta agonist)
pEC50: −log10 of the molar value.
MEASURED ATTRIBUTE: pEC50

1. CC(c1ccccc1)c1cc(Oc2c(Cl)cc(-n3nc(N)c(=O)[nH]c3=O)cc2Cl)n[nH]c1=O (single isomer, unassigned) [Compound 163] ... < 4.60
2. Cc1cccc(-c2cc(=O)[nH]nc2Oc2c(Cl)cc(-n3nc(N)c(=O)[nH]c3=O)cc2Cl)c1 ... < 4.60
3. Cc1cccc(-c2cc(Oc3c(Cl)cc(-n4nc(N)c(=O)[nH]c4=O)cc3Cl)n[nH]c2=O)c1 ... > 7.30
4. N#Cc1nn(-c2cc(Cl)c(Oc3ccc4[nH]cc(C5CCCC5)c4c3)c(Cl)c2)c(=O)[nH]c1=O ... > 7.30
5. Cc1cncc(-c2cc(Oc3c(Cl)cc(-n4ncc(=O)[nH]c4=O)cc3Cl)n[nH]c2=O)c1 ... 4.60 to 6.00
6. Cc1cccc(-c2cc(=O)[nH]nc2Oc2c(Cl)cc(-n3ncc(=O)[nH]c3=O)cc2Cl)c1 ... < 4.60
7. Nc1nn(-c2cc(Cl)c(Oc3cc(-c4ccc5nnccc5c4)c(=O)[nH]n3)c(Cl)c2)c(=O)[nH]c1=O ... < 4.60
8. Nc1nn(-c2cc(Cl)c(Oc3n[nH]c(=O)cc3-c3cc4ccccc4cn3)c(Cl)c2)c(=O)[nH]c1=O ... > 7.30
9. Cc1cc(-n2nc(C#N)c(=O)[nH]c2=O)cc(C)c1Cc1ccc2c(c1)C1(CC1)C(=O)N2 ... > 7.30
10. CC(C)c1cc(Cc2c(Cl)cc(-n3nc(N)c(=O)[nH]c3=O)cc2Cl)n[nH]c1=O ... > 7.30
11. CSCc1nn(-c2cc(Cl)c(Oc3cc(C(C)C)c(=O)[nH]n3)c(Cl)c2)c(=O)[nH]c1=O ... 6.00 to 6.60
12. CC1(C)CN(c2cc(Oc3c(Cl)cc(-n4nc(N)c(=O)[nH]c4=O)cc3Cl)n[nH]c2=O)C1 ... 6.60 to 7.30
13. CC(C)[C@@H](C)c1cc(Oc2c(Cl)cc(-n3nc(N)c(=O)[nH]c3=O)cc2Cl)n[nH]c1=O ... > 7.30
14. Nc1nn(-c2cc(Cl)c(Oc3cc(C4CCC(F)(F)CC4)c(=O)[nH]n3)c(Cl)c2)c(=O)[nH]c1=O ... 6.00 to 6.60
15. C=C(C)c1cc(Oc2c(Cl)cc(-n3nc(N)c(=O)[nH]c3=O)cc2Cl)n[nH]c1=O ... > 7.30
16. CCCc1c[nH]c2ccc(Oc3c(Cl)cc(-n4nc(C#N)c(=O)[nH]c4=O)cc3Cl)cc12 ... > 7.30
17. CC(C)(C)c1cc(Oc2c(Cl)cc(-n3nc(N)c(=O)[nH]c3=O)cc2Cl)n[nH]c1=O ... 6.60 to 7.30
18. Nc1nn(-c2cc(Cl)c(Oc3n[nH]c(=O)cc3-c3ccccc3)c(Cl)c2)c(=O)[nH]c1=O ... < 4.60
19. Cc1cc(-n2nc(N)c(=O)[nH]c2=O)cc(C)c1Cc1ccc2c(c1)C1(CC1)C(=O)N2 ... > 7.30
20. COC(=O)c1c[nH]c2ccc(Oc3c(Cl)cc(-n4nc(C#N)c(=O)[nH]c4=O)cc3Cl)cc12 ... > 7.30
21. CC(C)c1cc(Oc2c(Cl)cc(-c3nn(C)c(=O)[nH]c3=O)cc2Cl)n[nH]c1=O ... 6.60 to 7.30
22. C[C@H]1C[C@@H](c2cc(Oc3c(Cl)cc(-n4nc(N)c(=O)[nH]c4=O)cc3Cl)n[nH]c2=O)C1 (single isomer, unassigned) ... 6.60 to 7.30
23. Nc1nn(-c2cc(Cl)c(Oc3n[nH]c(=O)cc3-c3cnc4ccccc4c3)c(Cl)c2)c(=O)[nH]c1=O ... 6.00 to 6.60
24. Nc1nn(-c2cc(Cl)c(Oc3cc(C45CCC(C4)C5)c(=O)[nH]n3)c(Cl)c2)c(=O)[nH]c1=O ... 6.60 to 7.30
25. CC(C)/C=C1\C(=O)Nc2ccc(Oc3c(Cl)cc(-n4nc(N)c(=O)[nH]c4=O)cc3Cl)cc21 ... > 7.30
26. CCn1nc(-c2cc(Cl)c(Oc3cc(C(C)C)c(=O)[nH]n3)c(Cl)c2)c(=O)[nH]c1=O ... 4.60 to 6.00
27. N#Cc1nn(-c2cc(Cl)c(Oc3ccc4[nH]ccc4c3)c(Cl)c2)c(=O)[nH]c1=O ... > 7.30
28. Cc1cc(-n2nc(N)c(=O)[nH]c2=O)cc(C)c1Cc1ccc2[nH]cc(C(C)C)c2n1 ... > 7.30
29. CC(C)c1cc(Oc2c(Cl)cc(-c3nn(C(F)F)c(=O)[nH]c3=O)cc2Cl)n[nH]c1=O ... 6.60 to 7.30
30. Cc1cc(-n2nc(C#N)c(=O)[nH]c2=O)cc(C)c1Cc1ccc2[nH]cc(C(C)C)c2n1 ... > 7.30
31. Cc1cc(-n2ncc(=O)[nH]c2=O)cc(C)c1Cc1ccc2c(c1)C1(CC1)C(=O)N2 ... > 7.30
